Please go through the items and note down their pEC50.
- study_system: CFTR G551D mutant (Homo sapiens, UniProt P13569, G551D)
- Construct: expressed in transfected cells; host or cells: HEK293 (reverse transfection with plasmids)
- Sequence (P13569 whole entry G551D): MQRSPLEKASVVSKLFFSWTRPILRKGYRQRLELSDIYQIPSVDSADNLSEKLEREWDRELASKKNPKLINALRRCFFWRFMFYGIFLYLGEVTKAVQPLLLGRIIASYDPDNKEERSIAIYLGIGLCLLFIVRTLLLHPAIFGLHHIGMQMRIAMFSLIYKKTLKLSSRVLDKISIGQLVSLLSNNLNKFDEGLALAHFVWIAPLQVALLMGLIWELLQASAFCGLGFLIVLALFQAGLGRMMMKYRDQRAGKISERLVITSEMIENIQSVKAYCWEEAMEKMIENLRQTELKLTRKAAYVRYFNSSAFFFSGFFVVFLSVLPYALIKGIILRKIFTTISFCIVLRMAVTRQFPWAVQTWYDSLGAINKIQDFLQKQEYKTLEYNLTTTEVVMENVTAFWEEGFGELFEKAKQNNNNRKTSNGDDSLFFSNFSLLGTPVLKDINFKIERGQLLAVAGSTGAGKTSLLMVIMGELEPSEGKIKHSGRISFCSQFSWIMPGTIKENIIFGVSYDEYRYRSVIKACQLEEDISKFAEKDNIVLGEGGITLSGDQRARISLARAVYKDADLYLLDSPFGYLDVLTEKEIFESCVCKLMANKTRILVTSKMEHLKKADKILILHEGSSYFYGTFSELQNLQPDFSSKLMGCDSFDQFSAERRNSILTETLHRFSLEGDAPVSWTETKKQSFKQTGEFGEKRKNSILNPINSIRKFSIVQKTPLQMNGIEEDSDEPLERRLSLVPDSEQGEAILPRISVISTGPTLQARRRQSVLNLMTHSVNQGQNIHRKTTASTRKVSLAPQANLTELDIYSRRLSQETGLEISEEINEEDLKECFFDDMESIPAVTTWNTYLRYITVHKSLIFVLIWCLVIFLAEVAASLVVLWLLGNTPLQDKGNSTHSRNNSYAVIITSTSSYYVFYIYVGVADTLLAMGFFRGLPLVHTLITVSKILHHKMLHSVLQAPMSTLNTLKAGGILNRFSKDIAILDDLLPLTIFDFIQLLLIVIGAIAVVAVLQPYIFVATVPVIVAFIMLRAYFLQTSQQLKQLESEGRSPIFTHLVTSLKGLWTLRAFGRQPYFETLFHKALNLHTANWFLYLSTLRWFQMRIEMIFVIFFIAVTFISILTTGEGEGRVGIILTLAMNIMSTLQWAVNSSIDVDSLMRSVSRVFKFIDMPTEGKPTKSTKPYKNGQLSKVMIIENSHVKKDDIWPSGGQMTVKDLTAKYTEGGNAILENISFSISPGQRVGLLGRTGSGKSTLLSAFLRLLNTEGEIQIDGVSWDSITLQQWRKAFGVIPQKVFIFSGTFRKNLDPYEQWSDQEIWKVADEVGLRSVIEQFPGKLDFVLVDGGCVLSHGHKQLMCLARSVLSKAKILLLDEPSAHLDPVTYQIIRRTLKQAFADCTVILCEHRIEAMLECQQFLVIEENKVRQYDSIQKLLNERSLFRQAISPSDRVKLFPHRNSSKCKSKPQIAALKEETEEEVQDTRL
- assay_explanation: YFP-halide influx assay for the CFTR-G551D mutation (HEK293 cells)
- Assay type: cell-based
- recorded_conditions: HEK293 cells expressing CFTR G551D and YFP reporter; forskolin 10.67 μM; read-out: EC50 measured by YFP-halide influx assay for the CFTR-G551D
- Description: 6.3. YFP-Halide Influx Assay for the CFTR-G551D Mutation The YFP halide influx assay measures the functionality of the cystic fibrosis Transmembrane Conductance regulator (CFTR) channels. […] It makes use of the observation that the yellow fluorescent protein (YFP) variant YFP H148Q, I152L, F47L has its fluorescence substantially quenched by halide ions like Cl^− and I^−. […] The I^−-induced quenching of fluorescence is recorded immediately after injection of I^− for 7 seconds. […]
Notebook: values listed as pEC50 are -log10 of the concentration (mol/L).

Give the reported pEC50 for this molecule. CC1(C)Cc2c(sc(NC(=O)c3n[nH]cc3CO)c2C(N)=O)C(C)(C)O1
5.93

Give the reported pEC50 for this molecule. CC1(C)Cc2c(sc(NC(=O)c3cncs3)c2C(N)=O)C(C)(C)O1
5.69

Give the reported pEC50 for this molecule. Cc1ncoc1C(=O)Nc1sc2c(c1C(N)=O)CC(C)(C)OC2(C)C
5.69

Give the reported pEC50 for this molecule. CC1(C)Cc2c(sc(NC(=O)CC(O)C(F)(F)F)c2C(N)=O)C(C)(C)O1 (stereo not drawn)
5.48

Give the reported pEC50 for this molecule. CCOC(=O)C1CC1C(=O)Nc1sc2c(c1C(N)=O)CC(C)(C)OC2(C)C (stereo not drawn)
5.48

Give the reported pEC50 for this molecule. CC(C)C(O)CC(=O)Nc1sc2c(c1C(N)=O)CC(C)(C)OC2(C)C (stereo not drawn)
5.48

Give the reported pEC50 for this molecule. CC1(C)Cc2c(sc(NC(=O)c3ccn(CC(F)F)n3)c2C(N)=O)C(C)(C)O1
5.48

Give the reported pEC50 for this molecule. COCc1c[nH]nc1C(=O)Nc1sc2c(c1C(N)=O)CC(C)(C)OC2(C)C
6.14

Give the reported pEC50 for this molecule. CC1(C)Cc2c(sc(NC(=O)C(CO)CC3CC3)c2C(N)=O)C(C)(C)O1 (single isomer, unassigned) [Compound 96]
5.48

Give the reported pEC50 for this molecule. CC1(C)Cc2c(sc(NC(=O)[C@](C)(O)C(F)(F)F)c2C(N)=O)C(C)(C)O1
5.66

Give the reported pEC50 for this molecule. CC1(C)Cc2c(sc(NC(=O)[C@]3(CO)CC3(C)C)c2C(N)=O)C(C)(C)O1
5.87

Give the reported pEC50 for this molecule. CC1(C)Cc2c(sc(NC(=O)c3ccc(F)cc3C(F)(F)F)c2C(N)=O)C(C)(C)O1
5.96

Give the reported pEC50 for this molecule. CC1(C)Cc2c(sc(NC(=O)c3cccnc3O)c2C(N)=O)C(C)(C)O1
5.90

Give the reported pEC50 for this molecule. Cn1cc(C(=O)Nc2sc3c(c2C(N)=O)CC(C)(C)OC3(C)C)c(C(F)F)n1
5.18

Give the reported pEC50 for this molecule. Cn1nccc1C(=O)Nc1sc2c(c1C(N)=O)CC(C)(C)OC2(C)C
5.62

Give the reported pEC50 for this molecule. CC1(C)Cc2c(sc(NC(=O)c3cc(C(C)(C)O)[nH]n3)c2C(N)=O)C(C)(C)O1
5.54

Give the reported pEC50 for this molecule. CC1(C)Cc2c(sc(NC(=O)c3cscn3)c2C(N)=O)C(C)(C)O1
6.06

Give the reported pEC50 for this molecule. CC1(C)Cc2c(sc(NC(=O)C(C)(O)C(C)(C)C)c2C(N)=O)C(C)(C)O1 (stereo not drawn)
5.18

Give the reported pEC50 for this molecule. CC1(C)Cc2c(sc(NC(=O)c3n[nH]cc3C3COCCO3)c2C(N)=O)C(C)(C)O1 (single isomer, unassigned) [Compound 111]
5.51

Give the reported pEC50 for this molecule. CC1(C)Cc2c(sc(NC(=O)c3ccccc3NS(C)(=O)=O)c2C(N)=O)C(C)(C)O1
5.70

Give the reported pEC50 for this molecule. Cn1ccc(C(=O)Nc2sc3c(c2C(N)=O)CC(C)(C)OC3(C)C)n1
5.66

Give the reported pEC50 for this molecule. CC(C)(C)CC(O)C(=O)Nc1sc2c(c1C(N)=O)CC(C)(C)OC2(C)C (stereo not drawn) [Compound 106]
6.01

Give the reported pEC50 for this molecule. CC1(C)Cc2c(sc(NC(=O)C3CCNC3=O)c2C(N)=O)C(C)(C)O1 (stereo not drawn)
5.18

Give the reported pEC50 for this molecule. CC1(C)Cc2c(sc(NC(=O)[C@H](O)C(C)(C)C)c2C(N)=O)C(C)(C)O1
5.11

Give the reported pEC50 for this molecule. Cn1ncc(C(=O)Nc2sc3c(c2C(N)=O)CC(C)(C)OC3(C)C)c1C(F)(F)F
5.58

Give the reported pEC50 for this molecule. CC1(C)Cc2c(sc(NC(=O)c3ccccc3C(F)(F)F)c2C(N)=O)C(C)(C)O1
6.12

Give the reported pEC50 for this molecule. CC1(C)Cc2c(sc(NC(=O)c3ccccc3F)c2C(N)=O)C(C)(C)O1
6.55

Give the reported pEC50 for this molecule. CC1(C)Cc2c(sc(NC(=O)c3n[nH]cc3C3=COCCO3)c2C(N)=O)C(C)(C)O1
6.27

Give the reported pEC50 for this molecule. CC1(C)Cc2c(sc(NC(=O)c3ccccc3C(F)F)c2C(N)=O)C(C)(C)O1
6.08

Give the reported pEC50 for this molecule. CC1(C)Cc2c(sc(NC(=O)C3CC3(F)F)c2C(N)=O)C(C)(C)O1 (stereo not drawn)
5.34

Give the reported pEC50 for this molecule. CC1(C)Cc2c(sc(NC(=O)C(CO)C(C)(C)C)c2C(N)=O)C(C)(C)O1 (stereo not drawn) [Compound 90]
5.49

Give the reported pEC50 for this molecule. CC1(C)Cc2c(sc(NC(=O)C(CO)C(C)(C)C)c2C(N)=O)C(C)(C)O1 (stereo not drawn) [Compound 85]
5.48

Give the reported pEC50 for this molecule. CCc1[nH]nc(C(=O)Nc2sc3c(c2C(N)=O)CC(C)(C)OC3(C)C)c1Cl
6.14
